# Tested on: Plasmodium falciparum K1
# protocol: WHO-TDR: Malaria
# Type: functional, organism-based, Homo sapiens
# condition_details: Erythrocyte
measured_attribute: IC50

# input compound: `COc1nn(C)cc1-c1nnc(SCC(=O)N2CCC(Cc3ccccc3)CC2)n1C` ; wanted: its IC50
3.65 µg/mL

Field request: IC50 | item: CCC(Sc1ccc(NC(=O)c2cccc(F)c2)nn1)C(=O)OC (stereo unspecified)
> 10.5 µg/mL

Requested read-out: IC50. Entry: `O=C(c1c(F)cccc1F)N(Cc1ccccn1)c1nc2ccccc2s1`
7.58 µg/mL

====

# protocol: WHO-TDR: Cytotoxicity
# Format: toxicity, cell-based
# condition_details: human, MRC5 cells
measured_attribute: IC50

Please review the entries below; each comes with its answer.
Cc1cc(C(=O)Nc2nc(-c3cc4ccccc4o3)cs2)on1 | > 9.76 µg/mL
O=C(CCCn1nc(-c2ccc(F)cc2)ccc1=O)Nc1ccc(C(F)(F)F)cc1 | > 12.6 µg/mL
O=C(Nc1cccc(-c2ccc3nnc(-c4ccncc4)n3n2)c1)c1ccc2ccccc2n1 | > 13.3 µg/mL

Lab note: next molecule to report on.
So what does the record say about IC50 for CN(C)C(CNC(=O)c1ccc(-c2ccccc2)cc1)c1ccsc1 (centres undefined) ?
> 10.5 µg/mL

All figures here come from ChEMBL document CHEMBL2093137.
